src = patent US20230012273A1

molecular target: T1, Human SIRPαV1 (NP_542970.1), Extracellular Domain + His-Tag (human, UniProt P78324 31-373); assay: SPR, antibody captured on Protein A/G, ECD-His analyte, 1:1 fit
T1 construct: also called huSIRPαV1; hSIRPαV1; not shown: His-Tag
T1 sequence (P78324 other isoform, or with tags, fused parts or gaps): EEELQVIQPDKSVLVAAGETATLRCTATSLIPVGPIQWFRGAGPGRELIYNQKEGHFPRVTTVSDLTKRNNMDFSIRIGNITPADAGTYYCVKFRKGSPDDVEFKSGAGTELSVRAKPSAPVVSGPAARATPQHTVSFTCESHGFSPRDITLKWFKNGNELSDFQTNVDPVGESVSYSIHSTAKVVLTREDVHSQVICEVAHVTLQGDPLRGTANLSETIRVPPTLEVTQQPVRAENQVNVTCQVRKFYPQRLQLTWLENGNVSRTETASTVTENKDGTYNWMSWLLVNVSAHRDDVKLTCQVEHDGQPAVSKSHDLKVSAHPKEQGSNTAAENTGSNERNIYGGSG
// thresholds for Kd classes: b0 = under 2 nM, b1 = from 2 nM up to 4 nM, b2 = 4 nM and over

1. Antibody E18 (antibody, human IgG1, kappa, L234A L235A, V domains shown) VH: QVQLQESGPGLVRPSETLSLTCTVSGGSIRNYYWSWIRQPPGKGLEWIGFIYYTGRTFYNPSLKSRVTISLDMSKNQFSLKMTSVTAADTAVYYCARVRAYSGIGLDGTDVWGQGTTVTVSS VL: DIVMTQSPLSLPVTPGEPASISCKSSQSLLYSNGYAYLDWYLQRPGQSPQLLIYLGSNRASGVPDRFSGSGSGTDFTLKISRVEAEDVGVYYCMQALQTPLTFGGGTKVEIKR; b1
2. Antibody E15 (antibody, human IgG1, kappa, L234A L235A, V domains shown) VH: QVQLQESGPGLVRPSETLSLTCTVSGGSIRNYYWSWIRQPPGKGLEWIGFIYYTGRTFYNPSLKSRVTISLDMSINQFSLKMTSVTAADTAVYYCARVRAYSGIGLDGTDVWGQGTTVTVSS VL: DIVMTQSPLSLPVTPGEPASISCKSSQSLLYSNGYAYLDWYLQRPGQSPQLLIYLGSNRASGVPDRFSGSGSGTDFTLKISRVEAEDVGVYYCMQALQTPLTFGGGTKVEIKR; b0
3. Antibody A9 (antibody, human IgG1, kappa, L234A L235A, V domains shown) VH: EVQLVESGGGLVQPGGSLRLSCAASGFTLSSYDMHWVRQAPGKGLEWVSAIGTAGDTYYTGSVKGRFTISRENAKNSLYLQMNSLRADDTAVYYCVRGGVWDDAFDIWGQGTMVTVSS VL: DIQMTQSPSSLSASVGDRVTITCRASQDINNYLAWFQQKPGKAPKSLIYTASSLHSGVPSKFSGSGSGTDFTLTISSLQPEDFATYYCQQYVSYPYTFGQGTKLEIKR; b2
4. Antibody E9 (antibody, human IgG1, kappa, L234A L235A, V domains shown) VH: QVQLQESGPGLVRPSETLSLTCTVSGGSIRNYYWSWIRQPPGKGLEWIGFIYYNGRTFYNPSLKSRVTISLDMSINQFSLKMTSVTAADTAVYYCARVRAYSGIGLDGTDVWGQGTTVTVSS VL: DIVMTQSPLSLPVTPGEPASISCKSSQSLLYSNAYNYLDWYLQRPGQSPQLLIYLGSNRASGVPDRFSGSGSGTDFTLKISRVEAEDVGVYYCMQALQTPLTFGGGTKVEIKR; b0
5. Antibody E2 (antibody, human IgG1, kappa, L234A L235A, V domains shown) VH: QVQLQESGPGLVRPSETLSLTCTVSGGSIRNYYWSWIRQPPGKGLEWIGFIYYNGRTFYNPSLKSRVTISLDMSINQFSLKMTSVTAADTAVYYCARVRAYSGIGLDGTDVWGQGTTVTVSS VL: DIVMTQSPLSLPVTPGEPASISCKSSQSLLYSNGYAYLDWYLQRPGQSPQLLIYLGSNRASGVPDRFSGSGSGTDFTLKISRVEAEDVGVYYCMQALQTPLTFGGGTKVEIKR; b0
6. Antibody A2 (antibody, human IgG1, kappa, L234A L235A, V domains shown) VH: EVQLVESGGGLVQPGGSLRLSCAASGFTLSSYDMHWVRQATGKGLEWVSAIGTAGDTYYTGSVKGRFTISRENAKNSLYLQMNSLRAADTAVYYCVRGGVWDDAFDIWGQGTMVTVSS VL: DIQMTQSPSSLSASVGDRVTITCRASQGINNYAAWFQQKPGKAPKSLIYTASSLHSGVPSKFSGSGSGTDFTLTISSLQPEDFATYYCQQYVSYPYTFGQGTKLEIKR; b2
7. Antibody E20 (antibody, human IgG1, kappa, L234A L235A, V domains shown) VH: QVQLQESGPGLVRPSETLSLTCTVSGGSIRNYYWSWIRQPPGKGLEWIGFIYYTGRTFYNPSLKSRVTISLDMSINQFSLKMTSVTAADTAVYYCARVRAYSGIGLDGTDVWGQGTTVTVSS VL: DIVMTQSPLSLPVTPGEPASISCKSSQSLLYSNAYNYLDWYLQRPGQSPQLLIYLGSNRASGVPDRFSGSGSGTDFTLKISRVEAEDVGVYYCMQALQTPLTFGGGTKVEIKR; b1
8. Antibody A8 (antibody, human IgG1, kappa, L234A L235A, V domains shown) VH: EVQLVESGGGLVQPGGSLRLSCAASGFTLSSYDMHWVRQAPGKGLEWVSAIGTAGDTYYTGSVKGRFTISRENAKNSLYLQMNSLRAGDTAVYYCVRGGVWDDAFDIWGQGTMVTVSS VL: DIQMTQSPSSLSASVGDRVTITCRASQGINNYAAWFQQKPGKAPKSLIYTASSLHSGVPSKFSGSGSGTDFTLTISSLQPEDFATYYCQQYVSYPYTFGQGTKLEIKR; b2
9. Antibody E21 (antibody, human IgG1, kappa, L234A L235A, V domains shown) VH: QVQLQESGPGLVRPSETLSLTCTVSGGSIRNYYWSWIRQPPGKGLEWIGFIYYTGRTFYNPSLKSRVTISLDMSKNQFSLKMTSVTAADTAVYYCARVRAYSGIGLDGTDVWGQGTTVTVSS VL: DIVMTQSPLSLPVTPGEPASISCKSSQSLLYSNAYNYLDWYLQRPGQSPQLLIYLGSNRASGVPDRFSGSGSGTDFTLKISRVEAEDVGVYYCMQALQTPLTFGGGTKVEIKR; b2
10. Antibody E8 (antibody, human IgG1, kappa, L234A L235A, V domains shown) VH: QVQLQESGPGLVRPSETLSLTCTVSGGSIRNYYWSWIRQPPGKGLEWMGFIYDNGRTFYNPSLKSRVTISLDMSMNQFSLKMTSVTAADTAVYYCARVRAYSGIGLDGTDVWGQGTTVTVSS VL: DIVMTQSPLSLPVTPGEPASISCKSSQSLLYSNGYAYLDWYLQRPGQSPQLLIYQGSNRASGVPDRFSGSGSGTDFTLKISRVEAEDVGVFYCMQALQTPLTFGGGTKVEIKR; b0
11. Antibody E12 (antibody, human IgG1, kappa, L234A L235A, V domains shown) VH: QVQLQESGPGLVRPSETLSLTCTVSGGSIRNYYWSWIRQPPGKGLEWIGFIYYNGRTFYNPSLKSRVTISLDMSKNQFSLKMTSVTAADTAVYYCARVRAYSGIGLDGTDVWGQGTTVTVSS VL: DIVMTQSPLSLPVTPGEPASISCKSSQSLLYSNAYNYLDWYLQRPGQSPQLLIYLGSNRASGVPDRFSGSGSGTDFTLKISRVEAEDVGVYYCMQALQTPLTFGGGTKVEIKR; b0
